System: SR
Experiment: NCI tumour cell line growth inhibition, 48 h
Active and inactive are the calls of the source. No stated cut-off is given here; in the data, active = GI50 up to about 1.1 µM and inactive = higher.
RECORDED ENDPOINT: GI50

COMPOUND	RECORDED ENDPOINT	MEAS VALUE
CN(CCSCCN(C)C(=O)OC(C)(C)C)C(=O)OC(C)(C)C	GI50	> 100 µM (inactive)
N#Cc1sc2c(c1OC(=O)c1ccc(C(F)(F)F)cc1)c(=O)n(-c1ccccc1)c(=S)n2-c1ccccc1	GI50	0.0481 µM (active)
CCN(CC)CCC(=O)/C=C/c1ccc(C)cc1	GI50	6.78 µM (inactive)
CNC(=S)Nc1ccc(OC)c2ccccc12	GI50	> 10 µM (inactive)
O=C(Nc1nc(C23CC4CC(CC(C4)C2)C3)cs1)c1cc2cc(Cl)ccc2oc1=O	GI50	> 100 µM (inactive)
Oc1c(N2CCCCC2)cc(-c2cc(N3CCCCC3)c(O)c3ccccc23)c2ccccc12	GI50	0.368 µM (active)
N#Cc1c(N)c2c(c(-c3ccccc3)c1-c1ccccc1)C(=O)N(NC(=O)c1ccccc1)C2=O	GI50	44.5 µM (inactive)
COC(=O)C(=O)C(C(=O)C(=O)Nc1ccc([N+](=O)[O-])cc1C#N)c1nc2ccc([N+](=O)[O-])cc2nc1O (centres undefined)	GI50	96.8 µM (inactive)
O=C1C=C(Nc2ccccc2C(=O)CC(=O)C(=O)Nc2ccc(Cl)cc2)c2ccccc2C1=O	GI50	> 100 µM (inactive)
